# Measurement target: Ba/F3 EGFR Del19/T790M/C797S mutants (Homo sapiens, UniProt P00533, T790M/C797S, cells depend on it, form not given)
# Sequence (P00533 with tags, fused parts or gaps DEL746-750/T790M/C797S, form open): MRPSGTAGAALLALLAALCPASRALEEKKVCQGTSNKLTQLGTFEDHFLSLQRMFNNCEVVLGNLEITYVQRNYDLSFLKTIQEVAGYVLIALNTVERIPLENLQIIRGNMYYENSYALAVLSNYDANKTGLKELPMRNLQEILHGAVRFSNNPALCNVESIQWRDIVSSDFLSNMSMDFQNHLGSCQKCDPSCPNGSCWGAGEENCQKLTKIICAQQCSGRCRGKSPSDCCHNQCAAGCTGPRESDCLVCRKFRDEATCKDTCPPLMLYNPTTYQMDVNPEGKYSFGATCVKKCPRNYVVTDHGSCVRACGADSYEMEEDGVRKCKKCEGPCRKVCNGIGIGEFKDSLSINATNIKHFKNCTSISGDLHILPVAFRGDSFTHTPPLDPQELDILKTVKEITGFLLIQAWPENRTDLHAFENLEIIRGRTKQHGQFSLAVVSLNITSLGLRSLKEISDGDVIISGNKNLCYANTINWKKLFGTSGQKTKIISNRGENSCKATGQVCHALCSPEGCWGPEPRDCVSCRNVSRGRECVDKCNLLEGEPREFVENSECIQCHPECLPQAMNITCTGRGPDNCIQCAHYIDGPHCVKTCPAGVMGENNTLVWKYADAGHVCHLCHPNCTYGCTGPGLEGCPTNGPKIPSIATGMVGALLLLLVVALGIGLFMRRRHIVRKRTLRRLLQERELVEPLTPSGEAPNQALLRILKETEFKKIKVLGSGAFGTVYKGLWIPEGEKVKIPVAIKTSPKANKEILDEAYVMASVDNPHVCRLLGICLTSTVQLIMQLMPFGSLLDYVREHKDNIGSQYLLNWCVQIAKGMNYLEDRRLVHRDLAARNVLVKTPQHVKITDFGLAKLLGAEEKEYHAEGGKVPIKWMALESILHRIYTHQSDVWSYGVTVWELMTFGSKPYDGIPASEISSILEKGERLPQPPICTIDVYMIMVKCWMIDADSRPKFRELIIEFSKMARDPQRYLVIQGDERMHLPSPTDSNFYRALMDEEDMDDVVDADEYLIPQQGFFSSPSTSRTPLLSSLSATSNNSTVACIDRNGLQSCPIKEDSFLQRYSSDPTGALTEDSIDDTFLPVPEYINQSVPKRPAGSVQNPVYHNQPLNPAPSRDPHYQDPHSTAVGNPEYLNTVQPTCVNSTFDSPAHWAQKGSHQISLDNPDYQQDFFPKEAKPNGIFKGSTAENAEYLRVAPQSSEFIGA
# Protocol: CellTiter-Glo cell viability, Ba/F3 EGFR Del19/T790M/C797S cells
# Format: cell-based, murine
# Test settings: 72 hours, read-out: Ba/F3 EGFR mutant cell (IC50, nM) D/T/C
Value type: GI50 (nM)
Quick note: give the figure in nM, leave out the unit.

See these solved cases before continuing.
>>> readout_value("CNc1cc(N2CCC(N3CCN(C)CC3)CC2)c(C)cc1Nc1ncc(Cl)c(Nc2ccc3nccnc3c2NS(C)(=O)=O)n1")
109
>>> readout_value("COc1cc(N2CCC(N(C)C)CC2)ccc1Nc1ncc(Br)c(Nc2ccc3nccnc3c2NS(C)(=O)=O)n1")
30
>>> readout_value("CCc1cc(Nc2ncc(Cl)c(Nc3ccc(OC)c(OC)c3N(C)S(C)(=O)=O)n2)c(OC)cc1N1CCC(N2CCOCC2)CC1")
46

Exam item: Which measured GI50 value corresponds to CCc1cc(Nc2ncc(Br)c(Nc3cccc(OC)c3NS(C)(=O)=O)n2)c(OC)cc1N1CCC(N2CCN(C)CC2)CC1 ?
Marked response: 2

Exam item: What does the data say about its GI50? Entry: COc1cc(C2CCNCC2)c(C)cc1Nc1ncc(Br)c(Nc2ccc3nccnc3c2NS(C)(=O)=O)n1
Marked response: 725

Exam item: Tell me the measured GI50 of COc1cc(N2CCC(N3CCOCC3)CC2)c(C)cc1Nc1ncc(Br)c(Nc2ccc3nccnc3c2NS(C)(=O)=O)n1 , please.
Marked response: 16

Exam item: # get_value(readout='GI50', item= CCc1cc(Nc2ncc(Cl)c(Nc3ccc(OC)c(OC)c3NS(C)(=O)=O)n2)c(OC)cc1N1CCC(N2CCOCC2)CC1 )
Marked response: 54

* * *

# Measurement target: Ba/F3 EGFR Del19/T790M mutants (Homo sapiens, UniProt P00533, T790M, cells depend on it, form not given)
# Sequence (P00533 with tags, fused parts or gaps DEL746-750/T790M, form open): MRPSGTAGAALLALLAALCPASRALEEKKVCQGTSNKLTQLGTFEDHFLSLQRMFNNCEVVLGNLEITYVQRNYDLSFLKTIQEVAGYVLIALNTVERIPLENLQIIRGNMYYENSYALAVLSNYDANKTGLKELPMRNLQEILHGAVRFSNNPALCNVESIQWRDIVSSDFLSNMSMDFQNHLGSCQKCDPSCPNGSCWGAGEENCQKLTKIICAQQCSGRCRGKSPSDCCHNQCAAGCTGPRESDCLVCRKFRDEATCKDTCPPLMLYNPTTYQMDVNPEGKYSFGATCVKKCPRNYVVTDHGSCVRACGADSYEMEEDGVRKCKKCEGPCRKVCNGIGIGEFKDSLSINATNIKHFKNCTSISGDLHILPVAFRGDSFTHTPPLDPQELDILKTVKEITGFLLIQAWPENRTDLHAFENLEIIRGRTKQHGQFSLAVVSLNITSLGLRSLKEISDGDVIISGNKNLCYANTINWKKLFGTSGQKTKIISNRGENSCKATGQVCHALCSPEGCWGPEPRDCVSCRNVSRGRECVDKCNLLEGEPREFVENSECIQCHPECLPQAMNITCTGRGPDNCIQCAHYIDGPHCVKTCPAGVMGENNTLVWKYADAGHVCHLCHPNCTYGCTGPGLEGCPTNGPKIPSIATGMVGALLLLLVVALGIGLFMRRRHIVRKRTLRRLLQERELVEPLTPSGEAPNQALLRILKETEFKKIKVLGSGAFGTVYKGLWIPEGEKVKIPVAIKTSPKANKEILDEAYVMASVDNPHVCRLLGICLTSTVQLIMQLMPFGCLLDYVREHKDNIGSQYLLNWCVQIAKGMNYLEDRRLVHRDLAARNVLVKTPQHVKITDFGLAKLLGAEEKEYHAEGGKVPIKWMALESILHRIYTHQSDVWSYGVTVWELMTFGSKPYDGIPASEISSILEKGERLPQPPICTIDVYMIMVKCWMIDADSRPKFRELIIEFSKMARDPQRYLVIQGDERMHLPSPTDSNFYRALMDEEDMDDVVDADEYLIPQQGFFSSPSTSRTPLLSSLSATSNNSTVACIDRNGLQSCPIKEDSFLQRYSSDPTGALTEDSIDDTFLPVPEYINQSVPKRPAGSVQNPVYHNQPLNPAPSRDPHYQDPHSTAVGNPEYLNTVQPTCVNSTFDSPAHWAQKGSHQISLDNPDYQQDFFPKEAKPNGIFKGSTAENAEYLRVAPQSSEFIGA
# Protocol: CellTiter-Glo cell viability, Ba/F3 EGFR Del19/T790M cells
# Assay type: cell-based, murine
# Test settings: 72 hours, read-out: Ba/F3 EGFR mutant cell (IC50, nM) D/T
# log10(GI50) per entry
Units before log transform: nM; reported quantity: GI50; transform: log10.

Solved entries:
>>> readout_value("COC(=O)Nc1c(Nc2nc(Nc3ccc(C4CCNCC4)cc3OC)ncc2Cl)ccc2nccnc12")
2.84
>>> readout_value("CCCc1cc(Nc2ncc(Cl)c(Nc3ccc4nccnc4c3NS(C)(=O)=O)n2)c(OC)cc1N1CCC(N2CCN(C)CC2)CC1")
0.70
>>> readout_value("CCc1cc(Nc2ncc(Br)c(N(C)c3ccc4nccnc4c3N(C)S(C)(=O)=O)n2)c(OC)cc1N1CCC(N(C)C)CC1")
1.30
>>> readout_value("CCc1cc(Nc2ncc(Cl)c(Nc3ccc4nccnc4c3N(C)S(C)(=O)=O)n2)c(OC)cc1N1CCC(N2CCOCC2)CC1")
1.00
>>> readout_value("COc1cc(C2CCNCC2)ccc1Nc1ncc(C2CC2)c(Nc2ccc3nccnc3c2NS(C)(=O)=O)n1")
3.26

Exam item: Request the reported log10(GI50) associated with COc1cc(C2CCNCC2)c(C)cc1Nc1ncc(Br)c(Nc2ccc3nccnc3c2NS(C)(=O)=O)n1
Marked response: 2.65

Exam item: For COc1cc(C2=CCNCC2)c(C)cc1Nc1ncc(Br)c(Nc2ccc3nccnc3c2NS(C)(=O)=O)n1 [Example D2] , what is its reported log10(GI50)?
Marked response: 2.53

Exam item: Param item = COc1cc(N2CCOCC2)c(C)cc1Nc1ncc(Br)c(Nc2ccc3nccnc3c2S(C)(=O)=O)n1 [Example D1] ; retrieve measured log10(GI50).
Marked response: 2.68

Exam item: Name the reported log10(GI50) value associated with the molecule CCc1cc(Nc2ncc(Br)c(Nc3ccc4nccnc4c3N(C)S(C)(=O)=O)n2)c(OC)cc1N1CCC(N2CCOCC2)CC1
Marked response: 0.60

Exam item: Which log10(GI50) reading was recorded for the molecule CCc1cc(Nc2ncc(Cl)c(Nc3ccc4nccnc4c3NS(C)(=O)=O)n2)c(OC)cc1N1CCC(N2CCN(C)CC2)CC1 ?
Marked response: 0.60

Exam item: I have this molecule here, CCCc1cc(Nc2ncc(Cl)c(Nc3cccc(OC)c3NS(C)(=O)=O)n2)c(OC)cc1N1CCC(N2CCOCC2)CC1 , and I need its recorded log10(GI50).
Marked response: 1.48

Exam item: Return reported log10(GI50); argument: CCc1cc(Nc2ncc(Br)c(Nc3ccc4nccnc4c3NS(C)(=O)=O)n2)c(OC)cc1N1CCC(N2CCCC2)CC1
Marked response: 0.90

Exam item: So what does the record say about log10(GI50) for COc1cc(N2CCC(N3CCCC3)CC2)c(C)cc1Nc1ncc(Cl)c(Nc2cccc(OC)c2NS(C)(=O)=O)n1 ?
Marked response: 0.78

Exam item: Requested read-out: log10(GI50). Entry: CCS(=O)(=O)Nc1cc(OC)ccc1Nc1nc(Nc2cc(C)c(N3CCC(N4CCN(C)CC4)CC3)cc2OC)ncc1Cl
Marked response: 0.85

Exam item: Would you mind telling me what log10(GI50) value was observed for COc1cc(OC2CNC2)ccc1Nc1ncc(Cl)c(Nc2ccc3nccnc3c2NS(C)(=O)=O)n1 ?
Marked response: 2.90

Exam item: Please look up its log10(GI50): COc1ccc(Nc2nc(Nc3cc(C)c(N4CCC(N5CCN(C)CC5)CC4)cc3OC)ncc2Br)c(NS(C)(=O)=O)c1
Marked response: 0.48

Exam item: Reported log10(GI50), molecule CCCc1cc(Nc2ncc(Cl)c(Nc3ccc4nccnc4c3N(C)S(C)(=O)=O)n2)c(OC)cc1N1CCC(N2CCCC2)CC1 : ____
Marked response: 1.52

Exam item: Bench note: what log10(GI50) did CCc1cc(Nc2ncc(Br)c(Nc3ccc4nccnc4c3N(C)S(C)(=O)=O)n2)c(OC)cc1N1CCC(N(C)C)CC1 show?
Marked response: 0.48

Exam item: What value of log10(GI50) has been reported for the following molecule? CCc1cc(Nc2ncc(Cl)c(Nc3ccc(OC)c(OC)c3NS(C)(=O)=O)n2)c(OC)cc1N1CCC(N2CCOCC2)CC1
Marked response: 1.59

Exam item: What measured log10(GI50) goes with COc1cc(N2CCC(N3CCOCC3)CC2)c(C)cc1Nc1ncc(Br)c(Nc2ccc3nccnc3c2NS(C)(=O)=O)n1 ?
Marked response: 1.61

Exam item: # lookup: log10(GI50) of COc1cc(N2CCC(N3CCN(C)CC3)CC2)c(C)cc1Nc1ncc(Br)c(Nc2cccc(OC)c2NS(C)(=O)=O)n1
Marked response: 0.78

* * *

Reported GI50 values follow for various molecules
# Measurement target: Ba/F3 EGFR L858R/C797S mutants (Homo sapiens, UniProt P00533, C797S/L858R, cells depend on it)
# Sequence (P00533 whole entry C797S/L858R): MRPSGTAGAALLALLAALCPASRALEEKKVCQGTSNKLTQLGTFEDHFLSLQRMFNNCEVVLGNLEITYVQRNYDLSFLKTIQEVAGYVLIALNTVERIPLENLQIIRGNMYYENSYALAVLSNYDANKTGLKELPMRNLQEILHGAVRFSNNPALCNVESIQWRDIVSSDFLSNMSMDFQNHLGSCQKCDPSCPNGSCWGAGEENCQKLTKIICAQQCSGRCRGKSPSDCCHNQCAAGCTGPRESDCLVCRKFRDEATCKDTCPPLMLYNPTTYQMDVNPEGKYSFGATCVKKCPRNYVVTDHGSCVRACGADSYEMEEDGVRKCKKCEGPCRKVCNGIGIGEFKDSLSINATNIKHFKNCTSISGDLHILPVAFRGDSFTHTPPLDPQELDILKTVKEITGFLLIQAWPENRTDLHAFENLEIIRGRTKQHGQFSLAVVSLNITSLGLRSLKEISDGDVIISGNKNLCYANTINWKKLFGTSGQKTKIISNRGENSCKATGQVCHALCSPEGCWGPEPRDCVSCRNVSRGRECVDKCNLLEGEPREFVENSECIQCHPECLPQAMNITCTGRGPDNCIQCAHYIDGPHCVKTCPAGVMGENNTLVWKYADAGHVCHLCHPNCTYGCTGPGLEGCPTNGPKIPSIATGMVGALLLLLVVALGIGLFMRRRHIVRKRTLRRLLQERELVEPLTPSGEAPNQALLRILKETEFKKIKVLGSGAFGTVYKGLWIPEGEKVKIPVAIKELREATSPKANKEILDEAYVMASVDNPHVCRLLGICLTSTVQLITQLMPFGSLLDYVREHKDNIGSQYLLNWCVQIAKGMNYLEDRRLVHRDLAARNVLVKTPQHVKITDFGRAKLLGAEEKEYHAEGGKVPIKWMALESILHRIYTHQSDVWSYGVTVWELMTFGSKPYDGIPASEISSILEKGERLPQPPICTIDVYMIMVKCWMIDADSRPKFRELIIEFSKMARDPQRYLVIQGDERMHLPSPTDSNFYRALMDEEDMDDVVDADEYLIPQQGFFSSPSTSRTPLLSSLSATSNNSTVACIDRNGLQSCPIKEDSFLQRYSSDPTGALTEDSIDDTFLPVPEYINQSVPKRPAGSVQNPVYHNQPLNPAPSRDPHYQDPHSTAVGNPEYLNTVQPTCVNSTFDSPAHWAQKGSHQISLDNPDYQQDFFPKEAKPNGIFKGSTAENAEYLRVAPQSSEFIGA
# Protocol: CellTiter-Glo cell viability, Ba/F3 EGFR L858R/C797S cells
# Assay type: cell-based, murine
# Test settings: 72 hours, read-out: Ba/F3 EGFR mutant cell (IC50, nM) L/C
Field: numeric (nM). Do not append units.

Previously resolved entries follow.
>>> readout_value("CCc1cc(Nc2ncc(Cl)c(Nc3ccc4nccnc4c3N(C)S(C)(=O)=O)n2)c(OC)cc1N1CC2CCC1CN2C(C)C (stereo not shown) [Example B28]")
26
>>> readout_value("COc1cc(N2CCC(N3CCN(C)CC3)CC2)c(C)cc1Nc1ncc(Cl)c(Nc2ccc3nccnc3c2NS(C)(=O)=O)n1 [Example A1]")
33
>>> readout_value("COc1cc(C2CCN(C(C)=O)CC2)ccc1Nc1ncc(Cl)c(Nc2ccc3nccnc3c2NS(C)(=O)=O)n1 [Example B8]")
554

Exam item: Looking for the measured GI50 of COc1cc(N2CCC(N3CCCC3)CC2)c(C)cc1Nc1ncc(Cl)c(Nc2ccc3nccnc3c2NS(C)(=O)=O)n1 [Example A30] , can you help?
Marked response: 83

* * *

// reported GI50 for each item listed
# Measurement target: Ba/F3 EGFR L858R/T790M/C797S mutants (Homo sapiens, UniProt P00533, T790M/C797S/L858R, cells depend on it)
# Sequence (P00533 whole entry T790M/C797S/L858R): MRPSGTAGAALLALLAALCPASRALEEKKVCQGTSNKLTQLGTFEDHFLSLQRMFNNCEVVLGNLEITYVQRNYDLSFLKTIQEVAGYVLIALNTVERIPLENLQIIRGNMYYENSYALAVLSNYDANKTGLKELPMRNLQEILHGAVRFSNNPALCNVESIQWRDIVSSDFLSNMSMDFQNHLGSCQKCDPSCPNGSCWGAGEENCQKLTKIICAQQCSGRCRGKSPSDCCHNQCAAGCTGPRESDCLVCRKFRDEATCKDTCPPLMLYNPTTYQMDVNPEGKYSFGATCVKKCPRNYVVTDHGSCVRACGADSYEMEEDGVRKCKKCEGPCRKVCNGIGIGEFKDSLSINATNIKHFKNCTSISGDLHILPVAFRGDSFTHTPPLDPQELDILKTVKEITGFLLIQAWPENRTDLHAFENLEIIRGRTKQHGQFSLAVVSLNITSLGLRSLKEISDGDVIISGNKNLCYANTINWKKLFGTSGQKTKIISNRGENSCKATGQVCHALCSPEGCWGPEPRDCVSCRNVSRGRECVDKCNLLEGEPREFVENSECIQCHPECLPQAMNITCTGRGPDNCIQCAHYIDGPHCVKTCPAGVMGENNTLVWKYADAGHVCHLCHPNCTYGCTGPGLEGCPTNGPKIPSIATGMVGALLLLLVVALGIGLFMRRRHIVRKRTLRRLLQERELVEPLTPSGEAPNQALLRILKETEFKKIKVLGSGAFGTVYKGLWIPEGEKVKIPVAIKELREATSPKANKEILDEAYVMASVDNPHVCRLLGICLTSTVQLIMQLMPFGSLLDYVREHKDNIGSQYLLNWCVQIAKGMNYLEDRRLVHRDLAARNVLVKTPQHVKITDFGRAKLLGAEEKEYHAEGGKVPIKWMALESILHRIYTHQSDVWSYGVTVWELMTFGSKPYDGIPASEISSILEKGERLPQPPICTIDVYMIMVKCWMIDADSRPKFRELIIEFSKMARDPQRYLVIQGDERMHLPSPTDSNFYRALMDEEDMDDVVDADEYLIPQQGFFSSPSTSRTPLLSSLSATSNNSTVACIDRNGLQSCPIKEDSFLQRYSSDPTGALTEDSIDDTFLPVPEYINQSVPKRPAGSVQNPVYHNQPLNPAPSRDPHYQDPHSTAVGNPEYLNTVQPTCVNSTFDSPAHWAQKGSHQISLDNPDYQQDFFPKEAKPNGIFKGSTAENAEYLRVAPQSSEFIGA
# Protocol: CellTiter-Glo cell viability, Ba/F3 EGFR L858R/T790M/C797S cells
# Type: cell-based, murine
# Test settings: 72 hours, read-out: Ba/F3 EGFR mutant cell (IC50, nM) L/T/C
Quick note: give the figure in nM, leave out the unit.

Some solved entries appear below for comparison.
>>> readout_value("CCc1cc(Nc2ncc(Cl)c(Nc3ccc4nccnc4c3NS(C)(=O)=O)n2)c(OC)cc1N1CCC(N2CCCC2)CC1")
13
>>> readout_value("CCc1cc(Nc2ncc(Br)c(Nc3ccc4nccnc4c3NS(C)(=O)=O)n2)c(OC)cc1N1CCC(N2CCN(C)CC2)CC1")
18
>>> readout_value("CCc1cc(Nc2ncc(Cl)c(Nc3ccc4nccnc4c3N(C)S(C)(=O)=O)n2)c(OC)cc1N1CCC(N2CCN(C)CC2)CC1")
33
>>> readout_value("CCc1cc(Nc2ncc(Br)c(Nc3ccc4nccnc4c3N(C)S(C)(=O)=O)n2)c(OC)cc1N1CCN(C2CCN(C)CC2)CC1")
64

Then there is this compound:
Exam item: Consider the compound COc1cc(N2CCC(N3CCN(CC(F)F)CC3)CC2)ccc1Nc1ncc(Cl)c(Nc2ccc3nccnc3c2NS(C)(=O)=O)n1 and give its measured GI50.
Marked response: 640
